Each entry below carries its reported EC50.
system.tested: F508delCFTR (Homo sapiens, UniProt P13569, DEL508-508)
Construct: expressed in transfected cells; host or cells: CFBE41o- human lung-derived epithelial cells (CFBE41o-F508delCFTR-HRP), doxycycline-inducible
Sequence (P13569 with tags, fused parts or gaps DEL508-508): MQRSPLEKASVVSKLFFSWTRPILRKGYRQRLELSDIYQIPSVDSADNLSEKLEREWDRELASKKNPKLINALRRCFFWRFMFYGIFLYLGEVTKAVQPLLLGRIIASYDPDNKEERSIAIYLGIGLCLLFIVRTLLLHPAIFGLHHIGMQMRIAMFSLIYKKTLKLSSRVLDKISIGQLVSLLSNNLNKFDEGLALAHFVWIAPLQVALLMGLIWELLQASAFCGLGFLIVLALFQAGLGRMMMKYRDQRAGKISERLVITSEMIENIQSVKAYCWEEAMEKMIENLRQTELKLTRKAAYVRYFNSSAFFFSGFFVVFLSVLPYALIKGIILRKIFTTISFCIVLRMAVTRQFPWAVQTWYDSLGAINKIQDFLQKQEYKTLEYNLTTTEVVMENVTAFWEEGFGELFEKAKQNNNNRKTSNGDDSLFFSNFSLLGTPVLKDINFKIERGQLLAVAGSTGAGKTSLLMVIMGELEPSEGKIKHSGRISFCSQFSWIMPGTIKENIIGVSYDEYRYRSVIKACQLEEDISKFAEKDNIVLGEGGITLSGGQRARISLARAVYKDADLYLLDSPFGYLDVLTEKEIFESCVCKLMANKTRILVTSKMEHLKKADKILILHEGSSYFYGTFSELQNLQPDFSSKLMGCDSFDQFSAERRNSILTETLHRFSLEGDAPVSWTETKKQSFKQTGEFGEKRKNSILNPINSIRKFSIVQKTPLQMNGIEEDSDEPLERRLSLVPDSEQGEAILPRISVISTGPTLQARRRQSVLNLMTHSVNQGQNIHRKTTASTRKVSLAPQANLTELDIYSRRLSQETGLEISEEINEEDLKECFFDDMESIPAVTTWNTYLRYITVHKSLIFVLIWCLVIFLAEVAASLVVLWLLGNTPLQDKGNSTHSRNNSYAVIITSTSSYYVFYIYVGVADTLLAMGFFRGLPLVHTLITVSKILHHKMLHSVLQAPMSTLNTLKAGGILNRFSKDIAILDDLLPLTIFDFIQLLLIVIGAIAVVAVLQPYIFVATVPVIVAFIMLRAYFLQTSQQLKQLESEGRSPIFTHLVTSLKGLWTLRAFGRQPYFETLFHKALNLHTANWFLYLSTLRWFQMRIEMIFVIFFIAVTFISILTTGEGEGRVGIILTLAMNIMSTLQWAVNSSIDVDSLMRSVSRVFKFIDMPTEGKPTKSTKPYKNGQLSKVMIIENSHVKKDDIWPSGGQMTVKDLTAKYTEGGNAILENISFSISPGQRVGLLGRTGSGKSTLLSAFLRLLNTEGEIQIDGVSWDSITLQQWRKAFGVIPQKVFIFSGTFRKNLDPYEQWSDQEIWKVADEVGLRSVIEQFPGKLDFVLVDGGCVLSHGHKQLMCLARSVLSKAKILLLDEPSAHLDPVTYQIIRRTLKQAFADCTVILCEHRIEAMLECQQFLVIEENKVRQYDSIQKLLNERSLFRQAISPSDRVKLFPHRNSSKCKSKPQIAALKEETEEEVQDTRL
experiment.summary: Cell Surface Expression-Horse Radish Peroxidase (CSE-HRP) assay, test compound without co-corrector
Format: cell-based
condition.set: test compound without co-corrector
Protocol: Cell Surface Expression-Horse Radish Peroxidase (CSE-HRP) Assay […] The % activity measured at each of the 8 test concentrations of the test compound added either without or with a co-corrector (2 μM of 3-[(2R,4R)-4-({[1-(2,2-difluoro-1,3-benzodioxol-5-yl)cyclopropyl]carbonyl}amino)-7-methoxy-3,4-dihydro-2H-chromen-2-yl]benzoic acid) was normalized to the on-plate positive control using the following formulae: […]

Worked cases, answers included:
{"molecule": "COc1ccc(Br)c2c1[C@H](C(=O)NS(=O)(=O)c1cccc3ccccc13)CC2", "observed.measurement": "< 3 µM"}
{"molecule": "CCC1(C(=O)NS(=O)(=O)c2ccccc2C)CCc2c(Cl)cccc21 (centres unmarked)", "observed.measurement": "< 3 µM"}

Input: Item under review: COc1cccc2c1CCC2C(=O)NS(=O)(=O)c1ccccc1F (centres unmarked) . Reported EC50?
Output: ≥ 10 µM

Input: Item under review: COc1ccc(-c2ccccc2Oc2ccccc2)c2c1CCCC2C(=O)NS(=O)(=O)c1cccc2ccccc12 (centres unmarked) . Reported EC50?
Output: < 3 µM

Input: Item under review: COc1cccc2c1CCC2C(=O)NS(=O)(=O)c1ccc2cc(O)ccc2c1 (centres unmarked) . Reported EC50?
Output: ≥ 10 µM

----------
system.tested: F508delCFTR (Homo sapiens, UniProt P13569, DEL508-508)
Construct: expressed in transfected cells; host or cells: CFBE41o- human lung-derived epithelial cells (CFBE41o-F508delCFTR-HRP), doxycycline-inducible
experiment.summary: Cell Surface Expression-Horse Radish Peroxidase (CSE-HRP) assay, test compound with co-corrector;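 further: percent of 2 µM positive control corrector over DMSO; co-corrector is that same compound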
Format: cell-based
condition.set: maximum at any tested concentration, normalized to positive control, with 2 μM co-corrector
assay.readout: Maximum % activity (with co-corrector)

{"compound": "COc1ccc(-c2cccc3c2CCC3C(=O)NS(=O)(=O)c2ccccc2C)cn1 (centres unmarked) [III-85]", "observed.measurement": "++ (≥150 and <350)"}
{"compound": "COc1ccc(C(F)(F)F)c2c1[C@@H](C(=O)NS(=O)(=O)c1cccc3nc(C)ccc13)CC2 [Example I-117]", "observed.measurement": "+++ (≥350)"}
{"compound": "O=C(NS(=O)(=O)c1cccc2ccccc12)C1(CCn2cccn2)CCc2c(Cl)cccc21 (centres unmarked) [II-70]", "observed.measurement": "++ (≥150 and <350)"}
{"compound": "COc1ccc(C2CCC2)c2c1[C@H](C(=O)NS(=O)(=O)c1cccc3c1CCCN3)CC2 [Example I-129]", "observed.measurement": "+++ (≥350)"}

# next compound below
Input: Find Maximum % activity (with co-corrector) (F508delCFTR (Homo sapiens, UniProt P13569, DEL508-508)) for the entry O=C(NS(=O)(=O)c1cccc2ccccc12)C1CCCc2cccc(C3CCC3)c21 (centres unmarked) [Example I-82]
Output: +++ (≥350)

----------
system.tested: F508delCFTR (Homo sapiens, UniProt P13569, DEL508-508)
Construct: expressed in transfected cells; host or cells: CFBE41o- human lung-derived epithelial cells (CFBE41o-F508delCFTR-HRP), doxycycline-inducible
experiment.summary: Cell Surface Expression-Horse Radish Peroxidase (CSE-HRP) assay, test compound with co-corrector;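 further: percent of 2 µM positive control corrector over DMSO; co-corrector is that same compound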
Assay type: cell-based
condition.set: maximum at any tested concentration, normalized to positive control, with 2 μM co-corrector
Protocol: Cell Surface Expression-Horse Radish Peroxidase (CSE-HRP) Assay […] The % activity measured at each of the 8 test concentrations of the test compound added either without or with a co-corrector (2 μM of 3-[(2R,4R)-4-({[1-(2,2-difluoro-1,3-benzodioxol-5-yl)cyclopropyl]carbonyl}amino)-7-methoxy-3,4-dihydro-2H-chromen-2-yl]benzoic acid) was normalized to the on-plate positive control using the following formulae: […]
assay.readout: Maximum % activity (with co-corrector)

Worked cases, answers included:
{"compound": "CC[C@]1(C(=O)NS(=O)(=O)c2cccc3ccccc23)CCc2c(Cl)cccc21", "Maximum % activity (with co-corrector)": "+++ (≥350)"}
{"compound": "COc1ccc(Br)c2c1C(C(=O)NS(=O)(=O)c1cccc3ccccc13)CCC2 (stereo not shown)", "Maximum % activity (with co-corrector)": "+++ (≥350)"}
{"compound": "COc1cccc2c1CCC2C(=O)NS(=O)(=O)c1nc2c(=O)n(C)c(=O)n(C)c2n1Cc1ccccc1 (stereo not shown)", "Maximum % activity (with co-corrector)": "+ (<150)"}
{"compound": "CCOc1ccc(Br)c2c1C(C(=O)NS(=O)(=O)c1cccc3ccccc13)CC2 (stereo not shown)", "Maximum % activity (with co-corrector)": "+++ (≥350)"}
{"compound": "COc1cc2c(cc1OC)C(C(=O)NS(=O)(=O)c1cccc3ccccc13)CCC2 (stereo not shown)", "Maximum % activity (with co-corrector)": "+++ (≥350)"}
{"compound": "COc1ccccc1S(=O)(=O)NC(=O)C1CCc2c(OC)cccc21 (stereo not shown)", "Maximum % activity (with co-corrector)": "+ (<150)"}

Input: Item under review: COc1ccc(C#N)c2c1C(C(=O)NS(=O)(=O)c1cccc3ccccc13)CC2 (stereo not shown) . Reported Maximum % activity (with co-corrector)?
Output: +++ (≥350)

Input: Item under review: Cc1ccccc1S(=O)(=O)NC(=O)C1CCc2c(-c3ccc(N4CCCCC4)nc3)cccc21 (stereo not shown) . Reported Maximum % activity (with co-corrector)?
Output: ++ (≥150 and <350)

Input: Item under review: COc1ccc2c(c1OC)CCCC2C(=O)NS(=O)(=O)c1ccccc1C (stereo not shown) . Reported Maximum % activity (with co-corrector)?
Output: ++ (≥150 and <350)

Input: Item under review: COc1cccc2c1CCC2C(=O)NS(=O)(=O)c1c(C)nn(C)c1Cl (stereo not shown) . Reported Maximum % activity (with co-corrector)?
Output: + (<150)

Input: Item under review: COc1ccc(Br)c2c1C(C(=O)NS(=O)(=O)c1cccc3nccn13)CC2 (stereo not shown) . Reported Maximum % activity (with co-corrector)?
Output: +++ (≥350)

Input: Item under review: O=C(NS(=O)(=O)c1cccc2ccccc12)C1CCc2c(Br)cccc21 (stereo not shown) . Reported Maximum % activity (with co-corrector)?
Output: +++ (≥350)

Input: Item under review: "COc1ccc(C(F)(F)F)c2c1[C@@H](C(=O)NS(=O)(=O)c1cccc3ccccc13)CC2" . Reported Maximum % activity (with co-corrector)?
Output: +++ (≥350)

Input: Item under review: CCC1(C(=O)NS(=O)(=O)c2cccc3ccccc23)CCCc2cccc(Cl)c21 (stereo not shown) . Reported Maximum % activity (with co-corrector)?
Output: +++ (≥350)

Input: Item under review: COc1cccc2c1CCC2C(=O)NS(=O)(=O)c1cc(F)ccc1Cl (stereo not shown) . Reported Maximum % activity (with co-corrector)?
Output: + (<150)

Input: Item under review: CCC1(C(=O)NS(=O)(=O)c2ccc(C3CCC3)c3ccccc23)CCc2c(C3CCC3)cccc21 (stereo not shown) . Reported Maximum % activity (with co-corrector)?
Output: ++ (≥150 and <350)

Input: Item under review: COc1ccc(C2CCC2)c2c1C(C(=O)NS(=O)(=O)c1cccc3cnn(C)c13)C2 (stereo not shown) . Reported Maximum % activity (with co-corrector)?
Output: +++ (≥350)

Input: Item under review: "COc1ccc2c(c1)[C@@](C)(C(=O)NS(=O)(=O)c1ccccc1C)CC2" . Reported Maximum % activity (with co-corrector)?
Output: ++ (≥150 and <350)

Input: Item under review: "COc1ccc(OC)c2c1CC[C@@H]2C(=O)NS(=O)(=O)c1cccc2ncccc12" . Reported Maximum % activity (with co-corrector)?
Output: +++ (≥350)

----------
system.tested: F508delCFTR (Homo sapiens, UniProt P13569, DEL508-508)
Construct: expressed in transfected cells; host or cells: CFBE41o- human lung-derived epithelial cells (CFBE41o-F508delCFTR-HRP), doxycycline-inducible
experiment.summary: Cell Surface Expression-Horse Radish Peroxidase (CSE-HRP) assay, test compound without co-corrector
Type: cell-based
condition.set: test compound without co-corrector
pEC50: −log10 of the molar value.
Each entry below carries its reported pEC50.

{"molecule": "COc1ccc(Br)c2c1C(C(=O)NS(=O)(=O)c1cccc3ncccc13)CCC2 (centres unmarked)", "pEC50": "> 5.52"}
{"molecule": "COc1cccc2c1CCC2C(=O)NS(=O)(=O)c1nnc(NC(C)=O)s1 (centres unmarked)", "pEC50": "≤ 5.00"}
{"molecule": "CC1(C(=O)NS(=O)(=O)c2cccc3ccccc23)CCc2ccc(OC(F)(F)F)cc21 (centres unmarked)", "pEC50": "5.00 to 5.52"}
{"molecule": "Cc1ccccc1S(=O)(=O)NC(=O)C1(C)CCc2ccccc21 (centres unmarked)", "pEC50": "5.00 to 5.52"}
{"molecule": "COc1ccc(C2CCC2)c2c1C(C(=O)NS(=O)(=O)c1cccc3ncn(C)c13)CC2 (centres unmarked)", "pEC50": "> 5.52"}
{"molecule": "COc1ccc(C)c2c1CC[C@@H]2C(=O)NS(=O)(=O)c1cccc2ccccc12", "pEC50": "5.00 to 5.52"}
{"molecule": "CCC1(C(=O)NS(=O)(=O)c2cccc3c2CCCC3)CCc2c(Cl)cccc21 (centres unmarked)", "pEC50": "> 5.52"}
{"molecule": "COc1ccc(Br)c2c1CCC[C@H]2C(=O)NS(=O)(=O)c1cccc2ccccc12", "pEC50": "> 5.52"}
{"molecule": "CCOC(=O)COc1ccc(Br)c2c1CCCC2C(=O)NS(=O)(=O)c1cccc2ccccc12 (centres unmarked)", "pEC50": "> 5.52"}
{"molecule": "COc1ccc(Br)c2c1CCC2C(=O)NS(=O)(=O)c1ccccc1C (centres unmarked)", "pEC50": "5.00 to 5.52"}

Input: Item under review: CCC1(C(=O)NS(=O)(=O)c2cccc3c2ccn3C)CCc2c(Cl)cccc21 (centres unmarked) . Reported pEC50?
Output: 5.00 to 5.52

Input: Item under review: COc1ccc(-c2ccc(C)nc2)c2c1CCCC2C(=O)NS(=O)(=O)c1cccc2ccccc12 (centres unmarked) . Reported pEC50?
Output: 5.00 to 5.52

Input: Item under review: Cc1ccccc1S(=O)(=O)NC(=O)C1CCc2c(Cl)cccc21 (centres unmarked) . Reported pEC50?
Output: 5.00 to 5.52

Input: Item under review: CCC1(C(=O)NS(=O)(=O)c2cccc3ncccc23)CCc2c(Cl)cccc21 (centres unmarked) . Reported pEC50?
Output: > 5.52

Input: Item under review: "COc1ccc(C2CCC2)c2c1CCC[C@@H]2C(=O)NS(=O)(=O)c1cccc2ccccc12" . Reported pEC50?
Output: > 5.52

Input: Item under review: "COc1ccc(C2CCC2)c2c1[C@H](C(=O)NS(=O)(=O)c1cccc3ccccc13)CC2" . Reported pEC50?
Output: > 5.52

Input: Item under review: CCN1CCC[C@H]1CNC(=O)c1cc(S(=O)(=O)NC(=O)C2CCc3c(OC)cccc32)ccc1OC (some centres unmarked) . Reported pEC50?
Output: ≤ 5.00

Input: Item under review: "COc1ccc(C2CCC2)c2c1[C@@H](C(=O)NS(=O)(=O)c1cccc3ncn(C)c13)CC2" . Reported pEC50?
Output: 5.00 to 5.52

Input: Item under review: COc1ccc(/C=C/c2ccccc2)c2c1C(C(=O)NS(=O)(=O)c1cccc3ccccc13)CCC2 (centres unmarked) . Reported pEC50?
Output: 5.00 to 5.52

Input: Item under review: "COc1ccc2c(c1)CC[C@@]2(C)C(=O)NS(=O)(=O)c1cccc2ccccc12" . Reported pEC50?
Output: 5.00 to 5.52
